meta.source: the RNAGym collection of RNA variant scans (doi:10.1073/pnas.2313332121)

B1: TPR t1 (parent)
chain: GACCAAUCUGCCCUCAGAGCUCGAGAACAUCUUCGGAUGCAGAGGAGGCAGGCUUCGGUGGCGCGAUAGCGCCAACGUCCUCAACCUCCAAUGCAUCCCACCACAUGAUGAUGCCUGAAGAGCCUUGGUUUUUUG

- Variants of: B1
- Assay Method Text: polymerase ribozyme fitness, log enrichment relative to wild type (log ratio); higher = more active; in vitro selection for triplet polymerase activity
Observation Type: polymerase ribozyme fitness (log ratio)
Give bare numbers.

Some entries whose results are on file:
C70G A100U :: -4.02
C8A G117C :: -2.07
A27U A121C :: -0.527
A27G G60U A105U :: -5.71

Consider the following items and state reported polymerase ribozyme fitness (log ratio) for each.
1. C72U G117C
2. G36C G47U U55G G61U C101U U132A

1: -2.69; 2: -3.11

Hey, can you go through the list below and give me polymerase ribozyme fitness (log ratio) for every item?
1. G36A G45U U59A C72G C97G C98U C102A A111G
2. A18U G61C U112A G122U
3. C12A C22G A27U
4. A37C G52C G117A
5. G10U C31G G39C C64U G110A G113U
6. U30C G71U U87C
7. C104U G117U U132A

-6.75
-6.15
-4.16
-2.76
-6.42
-4.19
-1.97
